Every entry's value here was drawn from paper PMC8765781.

Tested on: wild-type ZIKV (Ugandan MR766 strain) in Vero cells
ASSAY COMMENT: ZIKV cytopathic effect (CPE) inhibition qHTS assay, CellTiter-Glo readout
Format: cell-based, Zika virus
CONDITIONS: Zika virus, Vero, read-out: Log AC50 (M) (converted)
METRIC NAME: AC50 (M)
All answers are understood in M, so give the number only.

Solved cases (5 shown):
1) Cn1cc(-c2ccncc2)c(-c2ccc(OCc3ccc4ccccc4n3)cc2)n1 = 2.59e-05
2) C/C=C(/C)C(=O)OC1CC(C)(C)CC2C3=CCC4C5(C)CCC(O[C@@H]6O[C@H](C(=O)O)[C@@H](O)[C@H](O)[C@H]6O[C@@H]6O[C@H](CO)[C@H](O)[C@H](O[C@@H]7OC[C@H](O)[C@H](O)[C@H]7O[C@@H]7O[C@H](CO)[C@@H](O)[C@H](O)[C@H]7O)[C@H]6O)C(C)(C)C5CCC4(C)C3(C)C(O)C(O)C12CO (stereo partly shown) = 9.77e-06
3) CC1=CC2(O)/C=C/C(C)(O)C(O)C(O)/C=C/C(=O)OC23C(=O)NC(CC(C)C)C3C1C (stereo not shown) = 1.59e-05
4) C=C(C(=O)O[C@H]1C/C(C)=C/CC/C(CO)=C/[C@H]2OC(=O)C(=C)[C@H]12)C(O)CO (stereo partly shown) = 4.53e-05
5) COc1cc2c(cc1O)C(c1ccc(O)cc1)C(C)C(C)C2 (stereo not shown) = 6.51e-05

// query AC50 value for entry COc1cc2c(NC3CCN(C(C)C)CC3)nc(C3CCCCC3)nc2cc1OCCCN1CCCC1
7.31e-05

// query AC50 value for entry COc1c2c(c(C)c3c1C(=O)OC3)OC1(C)CC(O)C34OC(OC)(CCC3(C)C1C2)OC4(C)CO (stereo not shown)
1.42e-05

----------
Reported Log AC50 (M) values, Vero cells.
All answers are understood in M, so give the number only.

1. CC(C)C(=O)O[C@H]1[C@@H]2[C@H](C)C(=O)O[C@@H]2C[C@@H](C)[C@@H]2C=CC(=O)[C@]21C = -4.6425

// query Log AC50 (M) value for entry CN(C)c1ccc(C(=O)NCCCCCCC(=O)NO)cc1
-4.9827

// query Log AC50 (M) value for entry CN(C)Cc1c(C(=O)NCCOc2ccc(C(=O)NO)cc2)oc2ccccc12
-5.0327

// query Log AC50 (M) value for entry C[C@@H](Oc1cc(-n2cnc3ccc(CN4CCN(C)CC4)cc32)sc1C(N)=O)c1ccccc1C(F)(F)F
-5.1699

// query Log AC50 (M) value for entry OCCN1CCN(CCCN2c3ccccc3Sc3ccc(C(F)(F)F)cc32)CC1
-4.5827

// query Log AC50 (M) value for entry CCN1CCN(CC(=O)Nc2ccc(-c3cccc4c(=O)cc(N5CCOCC5)oc34)c3sc4ccccc4c23)CC1
-4.6327

// query Log AC50 (M) value for entry CC1OC(OC2C(OC3C(OC4CCC5(C)C(CCC6(C)C5CC=C5C7CC(C)(C)CCC7(C(=O)O)C(O)CC56C)C4(C)C)OC(C(=O)O)C(O)C3O)OC(CO)C(OC3OCC(O)C(OC4OC(CO)C(O)C4O)C3O)C2OC2OC(C)C(O)C(O)C2O)C(O)C(O)C1O (centres unmarked)
-4.894

// query Log AC50 (M) value for entry COC(=O)C1(Cc2ccc(O)c(CC=C(C)C)c2)OC(=O)C(OC)=C1c1cc(O)c(O)c(CC=C(C)C)c1 (centres unmarked)
-5.0327
